Entry source: paper PMC2288786

target: CaM (Rattus norvegicus, UniProt P0DP29); construct: made in house; host or cells: E. coli Rosetta (DE3); experiment: Isothermal titration calorimetry of MBP peptide binding to CaM; design: species or system vertebrate; conditions: 25°C (298.15 K); fit to the specific binding site only (one site, peaks 2–7); 1.0 mM peptide into 0.10 mM CaM; 50 mM HEPES pH 7.5, 20 mM CaCl2
Where no end group is shown, it is not given here.
VALUE KIND: Kd (µM)

[[record]]
input_sequence = "HKGFKGVDAQGTLSKIFKL [MBP peptide]"
tgt = "CaM (Rattus norvegicus, UniProt P0DP29)"
value_kind = "Kd"
experimental_result = 3.4


----------
biological target: CaM (Rattus norvegicus, UniProt P0DP29); construct: made in house; host or cells: E. coli Rosetta (DE3); assay: Isothermal titration calorimetry of MBP peptide binding to CaM; set-up: species or system vertebrate
Where no end group is shown, it is not given here.
VALUE KIND: Kd

[[record]]
input_sequence = "HKGFKGVDAQGTLSKIFKL [MBP peptide]"
experimental_result = "25.9 µM"

